Taken from patent US20070117743A1.

- System: PANC-1
- Experiment Description: SRB colorimetric assay of cell growth and viability, PANC-1
- Type: cell-based, human
- Condition Notes: 48 hours exposure, SRB
Where a SMILES comes first, the peptide text is derived from it. Bridges are numbered along the chain shown (N, C = ends). [ ]: non-standard residue; d: D form. The star is where a group is joined. d(aIle) = CC[C@H](C)[C@@H](N)C(=O)O; d(aThr) = C[C@@H](O)[C@@H](N)C(=O)O; Hexanoyl(5-Me) = CC(C)CCCC(=O)*; Orn = NCCC[C@H](N)C(=O)O; Dhb = C/C=C(\N)C(=O)O; Aib = CC(C)(N)C(=O)O; Dha = C=C(N)C(=O)O
Known GI50 of a selection of molecules

# Molecule, GI50
rows = [
    ("C/C=C1\\NC(=O)[C@H](Cc2c[nH]c3ccccc23)NC(=O)[C@@H](C(C)C)NC(=O)[C@@H]([C@@H](C)CC)NC(=O)[C@H](NC(=O)[C@H](NC(=O)[C@H](CCCN)NC(=O)[C@H]2CCCN2C(=O)[C@H](NC(=O)[C@@H](NC(=O)[C@@H](NC(=O)[C@H](NC(=O)CCCC(C)C)C(C)C)[C@@H](C)O)C(C)C)C(C)C)[C@@H](C)CC)[C@@H](C)OC(=O)[C@H](C(C)C)NC1=O [Compound 68, [Trp^3]-KF] ({Hexanoyl(5-Me)}-[dV]TV[dV][dP][Orn][d(aIle)][d(aThr)][d(aIle)][dV]W[Dhb]V; ester 8-C)", "6.59 µM"),
    ("C/C=C1\\NC(=O)[C@H](Cc2ccccc2)NC(=O)[C@@H](C(C)C)NC(=O)[C@@H]([C@@H](C)CC)NC(=O)[C@H](NC(=O)[C@H](NC(=O)[C@H](CCCN)NC(=O)[C@H]2CCCN2C(=O)[C@H](NC(=O)[C@@H](NC(=O)[C@H](CCC(N)=O)NC(=O)CCCC(C)C)C(C)C)C(C)C)[C@@H](C)CC)[C@@H](C)OC(=O)[C@H](C(C)C)NC1=O [Compound 58, [Gln^12, noD-Val^13]-KF] ({Hexanoyl(5-Me)}-QV[dV][dP][Orn][d(aIle)][d(aThr)][d(aIle)][dV]F[Dhb]V; ester 7-C)", "≥ 7.11 µM"),
    ("C=C1NC(=O)[C@H](Cc2ccccc2)NC(=O)[C@@H](C(C)C)NC(=O)[C@@H]([C@@H](C)CC)NC(=O)[C@H](NC(=O)[C@H](NC(=O)[C@H](CCCN)NC(=O)[C@H]2CCCN2C(=O)[C@H](NC(=O)[C@@H](NC(=O)[C@@H](NC(=O)[C@H](NC(=O)CCCC(C)C)C(C)C)[C@@H](C)O)C(C)C)C(C)C)[C@@H](C)CC)[C@@H](C)OC(=O)[C@H](C(C)C)NC1=O [Compound 67, [Dha^2]-KF] ({Hexanoyl(5-Me)}-[dV]TV[dV][dP][Orn][d(aIle)][d(aThr)][d(aIle)][dV]F[Dha]V; ester 8-C)", "≥ 6.83 µM"),
    ("C/C=C1\\NC(=O)[C@H](Cc2ccccc2)NC(=O)[C@@H](C(C)C)NC(=O)[C@@H]([C@@H](C)CC)NC(=O)[C@H](NC(=O)[C@H](NC(=O)[C@H](CCCNC(=O)C(F)(F)F)NC(=O)[C@H]2CCCN2C(=O)[C@H](NC(=O)[C@@H](NC(=O)[C@@H](NC(=O)[C@H](NC(=O)CC[C@@H](C)CC)C(C)C)[C@@H](C)OC(=O)C(F)(F)F)C(C)C)C(C)C)[C@@H](C)CC)[C@@H](C)OC(=O)[C@H](C(C)C)NC1=O", "3.58 µM"),
    ("CC[C@H](C)[C@@H](NC(=O)[C@H](CCCN)NC(=O)[C@H]1CCCN1C(=O)[C@H](NC(=O)[C@@H](NC(=O)[C@@H](NC(=O)[C@H](NC(=O)CCCC(C)C)C(C)C)[C@@H](C)O)C(C)C)C(C)C)C(=O)N[C@H]1C(=O)N[C@H]([C@@H](C)CC)C(=O)N[C@H](C(C)C)C(=O)N[C@@H](Cc2ccccc2)C(=O)NC(C)(C)C(=O)N[C@@H](C(C)C)C(=O)O[C@@H]1C [Compound 66, [Aib^2]-KF] ({Hexanoyl(5-Me)}-[dV]TV[dV][dP][Orn][d(aIle)][d(aThr)][d(aIle)][dV]F[Aib]V; ester 8-C)", "≥ 6.76 µM"),
    ("C/C=C1\\NC(=O)[C@H](Cc2ccc(I)cc2)NC(=O)[C@@H](C(C)C)NC(=O)[C@@H]([C@@H](C)CC)NC(=O)[C@H](NC(=O)[C@H](NC(=O)[C@H](CCCN)NC(=O)[C@H]2CCCN2C(=O)[C@H](NC(=O)[C@@H](NC(=O)[C@@H](NC(=O)[C@H](NC(=O)CC[C@@H](C)CC)C(C)C)[C@@H](C)O)C(C)C)C(C)C)[C@@H](C)CC)[C@@H](C)OC(=O)[C@H](C(C)C)NC1=O [Compound 72, [Phe(4-I)^3, (4S)-MeHex^14]-KF]", "0.885 µM"),
    ("C/C=C1\\NC(=O)[C@H](Cc2ccccc2)N(C)C(=O)[C@@H](C(C)C)NC(=O)[C@@H]([C@@H](C)CC)NC(=O)[C@H](NC(=O)[C@H](NC(=O)[C@H](CCCN)NC(=O)[C@H]2CCCN2C(=O)[C@H](NC(=O)[C@@H](NC(=O)[C@@H](NC(=O)[C@H](NC(=O)CC[C@@H](C)CC)C(C)C)[C@@H](C)O)C(C)C)C(C)C)[C@@H](C)CC)[C@@H](C)OC(=O)[C@H](C(C)C)NC1=O [Compound 80, [NMePhe^3, (4S)-MeHex^14]-KF]", "1.9 µM"),
    ("CC[C@H](C)[C@@H](NC(=O)[C@H](CCCN)NC(=O)[C@H]1CCCN1C(=O)[C@H](NC(=O)[C@@H](NC(=O)[C@@H](NC(=O)[C@H](NC(=O)CCCC(C)C)C(C)C)[C@@H](C)O)C(C)C)C(C)C)C(=O)N[C@H]1C(=O)N[C@H]([C@@H](C)CC)C(=O)N[C@H](C(C)C)C(=O)N[C@@H](Cc2ccccc2)C(=O)NCC(=O)N[C@@H](C(C)C)C(=O)O[C@@H]1C [Compound 65, [Gly^2]-KF] ({Hexanoyl(5-Me)}-[dV]TV[dV][dP][Orn][d(aIle)][d(aThr)][d(aIle)][dV]FGV; ester 8-C)", "≥ 6.89 µM"),
]
